Tested on: M. tuberculosis mono-resistant to RIF (RMPR, ATCC 35838), rpoB H526Y
Format: cell-based, Mycobacterium tuberculosis
Recorded measurements of MIC, one per entry
metricName: MIC

>>> testvalue("CC1(C)CCC2=C(O1)C(=O)c1ccccc1C2=O")
"206.6 µM"
>>> testvalue("O=C1C(Cl)=C(Cl)C(=O)c2ccccc21")
"110.6 µM"
>>> testvalue("NNC(=O)c1ccncc1 [INH, isoniazid, reference compound]")
"≤0.219 µM"
>>> testvalue("CO[C@H]1/C=C/O[C@@]2(C)Oc3c(C)c(O)c4c(O)c(c(/C=N/N5CCN(C)CC5)c(O)c4c3C2=O)NC(=O)/C(C)=C\\C=C\\[C@H](C)[C@H](O)[C@@H](C)[C@@H](O)[C@@H](C)[C@H](OC(C)=O)[C@@H]1C [RIF, rifampicin, reference compound]")
"622.2 µM"
>>> testvalue("CC1(C)CC2=C(O1)C(=O)c1ccccc1C2=O")
"54.8 µM"
>>> testvalue("NC1=CC(=O)c2ccccc2C1=O")
"36.1 µM"
>>> testvalue("C=CCOC1=CC(=O)c2ccccc2C1=O")
"234 µM"
>>> testvalue("O=C1C=C(Nc2ccccc2)C(=O)c2ccccc21")
"12.5 µM"
